Assay: Stability assay in 25% TIDE 2X detergent with DTPA (residual Abz-AGLA-Nba protease activity)
Assay type: physicochemical
Conditions: 60 min at 32°C; variant residual AGLA activity divided by wild-type residual activity
PARAMETER_MEASURED: PI (relative stability), 25% TIDE 2X with DTPA

According to the records, this molecule Q128M: single-substitution thermolysin variant (SEQ ID NO:3 numbering) (protein, listed as Geobacillus caldoproteolyticus) ITGTSTVGVGRGVLGDQKNINTTYSTYYYLQDNTRGNGIFTYDAKYRTTLPGSLWADADNQFFASYDAPAVDAHYYAGVTYDYYKNVHNRLSYDGNNAAIRSSVHYSQGYNNAFWNGSQMVYGDGDGMTFIPLSGGIDVVAHELTHAVTDYTAGLIYQNESGAINEAISDIFGTLVEFYANKNPDWEIGEDVYTPGISGDSLRSMSDPAKYGDPDHYSKRYTGTQDNGGVHINSGIINKAAYLISQGGTHYGVSVVGIGRDKLGKIFYRALTQYLTPTSNFSQLRAAAVQSATDLYGSTSQEVASVKQAFDAVGVK displays PI (relative stability), 25% TIDE 2X with DTPA of 1.06
